# tgt: HLA-A1102 (Homo sapiens, UniProt P04439, A114D/D185E/E176A/E43K/F33Y/L180Q/S129P/T187R)
# Sequence (P04439 25-365 limits assumed, stated change not applied): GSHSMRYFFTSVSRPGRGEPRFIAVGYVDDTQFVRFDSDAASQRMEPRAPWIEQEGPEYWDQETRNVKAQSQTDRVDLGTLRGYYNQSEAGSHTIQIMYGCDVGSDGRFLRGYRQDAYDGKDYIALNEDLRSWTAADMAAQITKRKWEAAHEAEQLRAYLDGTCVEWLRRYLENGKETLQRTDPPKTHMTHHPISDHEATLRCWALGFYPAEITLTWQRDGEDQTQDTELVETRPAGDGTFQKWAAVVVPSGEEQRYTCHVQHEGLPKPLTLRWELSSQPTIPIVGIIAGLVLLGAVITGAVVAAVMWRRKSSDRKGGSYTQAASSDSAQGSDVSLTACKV
# procedure-summary: cell-based
# Assay type: binding
# test-settings: A1102; peptide 15 μM vs FITC-labeled reference peptide 300 nM, 24 h, 4°C, flow cytometry; read-out: 15-μM inhibition (%)
Where no end group is shown, it is not given here.
Use MET when the recorded inhibition at 15 µM is no lower than 20%; use NOT MET when it is lower.

[[record]]
sequence_text = "SILDIRQGPK [Peptide P33]"
assigned_class = "MET"

[[record]]
sequence_text = "MVHQPISPR [Peptide P103]"
assigned_class = "NOT MET"

[[record]]
sequence_text = "FVNTPPLVK [Peptide P44]"
assigned_class = "MET"

[[record]]
sequence_text = "MAHQPLSPR [Peptide P111]"
assigned_class = "MET"

[[record]]
sequence_text = "TSLPKQEQK [Peptide P31]"
assigned_class = "NOT MET"


Now, please, on to the next sequence.
Does the reported inhibition at 15 µM for ATLWCVHQR [Peptide P34] fall at or above the 20% mark?
NOT MET
